Values from patent US9120756B2

biological target: hVR1 (Homo sapiens (Human), UniProt Q8NER1); assay: FLIPR assay hVR1, after pH stimulus; format: cell-based; details: read-out: IC50 (human being) hVR1 pH: inhibition (as a percentage) @ 10 μM, inhibition determined at 10 μM
Sequence (Q8NER1 whole entry): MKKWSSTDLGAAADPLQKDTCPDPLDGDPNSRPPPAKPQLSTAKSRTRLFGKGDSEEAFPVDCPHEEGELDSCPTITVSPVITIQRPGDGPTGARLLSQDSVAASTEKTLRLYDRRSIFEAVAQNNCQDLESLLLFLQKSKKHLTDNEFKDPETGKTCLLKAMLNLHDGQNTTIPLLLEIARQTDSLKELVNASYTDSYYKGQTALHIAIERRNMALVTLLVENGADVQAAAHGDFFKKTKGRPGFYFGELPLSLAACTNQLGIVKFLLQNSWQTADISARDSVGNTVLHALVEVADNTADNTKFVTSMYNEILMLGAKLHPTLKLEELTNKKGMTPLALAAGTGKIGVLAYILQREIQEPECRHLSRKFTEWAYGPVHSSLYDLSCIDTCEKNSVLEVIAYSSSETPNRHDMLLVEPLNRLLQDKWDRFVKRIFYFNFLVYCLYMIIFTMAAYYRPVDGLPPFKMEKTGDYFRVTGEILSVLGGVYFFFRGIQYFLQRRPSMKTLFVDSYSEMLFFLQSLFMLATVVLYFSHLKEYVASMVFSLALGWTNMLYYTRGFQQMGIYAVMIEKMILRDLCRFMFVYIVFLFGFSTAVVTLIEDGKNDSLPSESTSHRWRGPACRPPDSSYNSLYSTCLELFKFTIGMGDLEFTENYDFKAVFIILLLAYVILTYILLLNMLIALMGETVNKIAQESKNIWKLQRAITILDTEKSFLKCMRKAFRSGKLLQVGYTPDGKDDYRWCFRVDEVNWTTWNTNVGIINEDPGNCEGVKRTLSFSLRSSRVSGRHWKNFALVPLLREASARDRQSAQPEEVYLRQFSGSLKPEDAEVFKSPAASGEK
inhibition at 10 µM values by entry
Measured Endpoint: inhibition at 10 µM (%)

[[record]]
molecule = "Cc1ccc(-n2nc(C(C)(C)C)cc2CNC(=O)C(C)c2ccc(NS(C)(=O)=O)c(F)c2)cc1 (centres unmarked) [Example 12]"
study_target = "hVR1 (Homo sapiens (Human), UniProt Q8NER1)"
readout_number = 40

[[record]]
molecule = "C[C@H](C(=O)NCc1cc(C(C)(C)C)nn1-c1cccc(Cl)c1)c1ccc(NS(C)(=O)=O)c(F)c1 [Example 17]"
study_target = "hVR1 (Homo sapiens (Human), UniProt Q8NER1)"
readout_number = 37

[[record]]
molecule = "CC(C(=O)NCc1cc(C(C)(C)C)nn1-c1cccc(Cl)c1)c1cc(F)c(NS(C)(=O)=O)c(F)c1 (centres unmarked) [Example 29]"
study_target = "hVR1 (Homo sapiens (Human), UniProt Q8NER1)"
readout_number = 42

[[record]]
molecule = "CC(C(=O)NCc1cc(C(C)(C)C)nn1-c1ccc(Cl)cc1)c1ccc(NS(C)(=O)=O)c(F)c1 (centres unmarked) [Example 14]"
study_target = "hVR1 (Homo sapiens (Human), UniProt Q8NER1)"
readout_number = 25

[[record]]
molecule = "C[C@@H](C(=O)NCc1cc(C(F)(F)F)nn1-c1ccc(Cl)cc1)c1ccc(NS(C)(=O)=O)c(F)c1 [Example 22]"
study_target = "hVR1 (Homo sapiens (Human), UniProt Q8NER1)"
readout_number = 42

[[record]]
molecule = "CCCCCCn1nc(C(C)(C)C)cc1CNC(=O)[C@@H](C)c1ccc(NS(C)(=O)=O)c(F)c1 [Example 6]"
study_target = "hVR1 (Homo sapiens (Human), UniProt Q8NER1)"
readout_number = 13

[[record]]
molecule = "CCCCCCn1nc(C(C)(C)C)cc1CNC(=O)C(C)c1ccc(NS(C)(=O)=O)c(F)c1 (centres unmarked) [Example 5]"
study_target = "hVR1 (Homo sapiens (Human), UniProt Q8NER1)"
readout_number = 36

[[record]]
molecule = "CC(C(=O)NCc1cc(C(C)(C)C)nn1-c1ccc(F)c(Cl)c1)c1ccc(NS(C)(=O)=O)c(F)c1 (centres unmarked) [Example 18]"
study_target = "hVR1 (Homo sapiens (Human), UniProt Q8NER1)"
readout_number = 31

